# assay protocol: Plasma and total brain concentrations at 1 h post single oral administration to female C57BL/6 mice
# Assay type: in vivo
# measurement context: mouse, brain/plasma, 10 mg/kg oral gavage, read-out: brain to plasma ratio
endpoint name: Kp at 1 h

| compound | recorded number |
| --- | --- |
| C=CC(=O)N1CCC[C@@H](c2cnc(C(N)=O)c3[nH]c4c(c23)CCCC4)C1 | 0.24 |
| C=CC(=O)N1CCC=C(c2c(F)cc(C(N)=O)c3[nH]c4c(c23)CCCCC4)C1 | 0.22 |
| CC#CC(=O)N1CCC[C@H]1c1nc(-c2ccc(C(=O)Nc3ccccn3)cc2)c2c(N)nccn12 [Acalabrutinib, reference compound] | 0.04 |
